Assay: Acute toxicity in mice
Details: mouse, in vivo, oral, read-out: LD50, oral, mice
Property Label: LD50 at 8 h (mg/kg)
Your answer should be a plain number; it is taken to be in mg/kg.

Give the measured LD50 at 8 h of CS(=O)(=O)O.N#Cc1ccccc1CN1CCc2sccc2C1 [Methanesulfonate] .
883

----------
Experiment: Acute toxicity in rats
Details: rat, in vivo, ip, intraperitoneal, read-out: LD50, intraperitoneal, rats
Property Label: LD50 at 8 h (mg/kg)
Your answer should be a plain number; it is taken to be in mg/kg.

Give the measured LD50 at 8 h of CS(=O)(=O)O.N#Cc1ccccc1CN1CCc2sccc2C1 [Methanesulfonate] .
719
